So I've got a bunch of compounds here, and I need their CC50 at 3 days values.
- PROCEDURE_SUMMARY: Compound toxicity, ATPLite total ATP levels
- Assay type: cell-based
- MEASUREMENT_SETUP: human, HepAD38 cells; three days after compound addition; concentration reducing total ATP levels by 50% relative to no drug controls; class symbols

Recorded CC50 at 3 days, per entry:
entry_smiles=C[C@]1(O)CC2CC[C@@H](C1)[C@H]2S(=O)(=O)c1cc(C(=O)Nc2cc(F)c(F)c(F)c2)ccc1Cl assay_endpoint="CC50 at 3 days" meas_value="> 25 µM"
entry_smiles=C=CCOC(=O)OC[C@]1(O)CC2CC[C@@H](C1)[C@H]2S(=O)(=O)c1cc(C(=O)Nc2cc(F)c(F)c(F)c2)ccc1Cl assay_endpoint="CC50 at 3 days" meas_value="> 25 µM"
entry_smiles=COC(=O)N[C@H]1C2CCC1C[C@@H](S(=O)(=O)c1cc(C(=O)Nc3cc(F)c(F)c(F)c3)ccc1Cl)C2 assay_endpoint="CC50 at 3 days" meas_value="> 25 µM"
entry_smiles=O=C(Nc1cc(F)c(F)c(F)c1)c1ccc(Cl)c(S(=O)(=O)[C@H]2CC3CCC(C2)[C@]3(O)c2cccnc2)c1 assay_endpoint="CC50 at 3 days" meas_value="10 to 25 µM"
entry_smiles=O=C(Nc1cc(F)c(F)c(F)c1)c1ccc(Cl)c(S(=O)(=O)[C@H]2C3CC[C@H]2C[C@](O)(c2ncc[nH]2)C3)c1 assay_endpoint="CC50 at 3 days" meas_value="> 25 µM"

Turning to the following compound.
Ask | Recorded CC50 at 3 days of "[N-]=[N+]=NC[C@]1(O)C2CCC1C[C@@H](S(=O)(=O)c1cc(C(=O)Nc3cc(F)c(F)c(F)c3)ccc1Cl)C2" , please.
Reply | > 25 µM

Where these numbers come from: patent US10538532B2
